The following binders are listed with their measured t1/2 values.
# systemName: T1, recombinant RSV protein G, G(B): residues 66-292 of strain 18537 (human respiratory syncytial virus …, UniProt P20896 66-292)
# T1 construct: also called soluble recombinant G protein; recombinant protein G
# T1 sequence: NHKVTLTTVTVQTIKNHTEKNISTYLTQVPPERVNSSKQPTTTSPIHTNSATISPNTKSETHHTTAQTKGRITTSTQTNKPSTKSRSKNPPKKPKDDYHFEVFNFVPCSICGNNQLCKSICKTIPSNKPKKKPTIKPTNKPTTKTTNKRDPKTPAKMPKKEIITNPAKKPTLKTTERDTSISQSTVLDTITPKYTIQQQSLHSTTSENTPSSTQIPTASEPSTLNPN
# procedureDetails: SPR Biacore 3000, Fab over amine-coupled recombinant protein G

binder	unitAnnotation	t1/2
Fab fragment of antibody 816 (Fab) VH: EVQLLESGGGLVQPGGSLRLSCVASGFTFSTYAMTWVRQAPGKGLEWVSVIRASGDSEIYADSVRGRFTISRDNSKNTVFLQMDSLRVEDTAVYFCANIGQRRYCSGDHCYGHFDYWGQGTLVTVSS light: DIVMTQSPLSLPVTPGEPASISCRSSQSLLHSDGRYYVDWYLQKPGQSPHLLIYLASNRASGVPDRFTGSGSGTDFTLKISRVEAEDVGVYYCMQGLHTPWTFGQGTKVDIKRTVAAPSVFIFPPSDEQLKSGTASVVCLLNNFYPREAKVQWKVDNALQSGNSQESVTEQDSKDSTYSLSSTLTLSKADYEKHKVYACEVTHQGLSSPVTKSFNRGEC	h	1.08
Fab fragment of antibody 838 (Fab, also called Fab clone 838) VH: QVQLVESGGGVVQPGTSLRLSCAASGFTFSTFGMHWVRQAPGKGLEWVAVISYDGNKKYYADSVKGRFTISRDNSKNTLYLQVNSLRVEDTAVYYCAAQTPYFNESSGLVPDWGQGTLVTVSS light: DIQMTQSPSSLSASVGDRVSITCRASQGISNYLAWYQQKPGKVPKLLIYAASTLQSGVPSRFSGSGSGTDFTLTISSLQPEDVATYYCQKYNSAPQTFGQGTKVEIKRTVAAPSVFIFPPSDEQLKSGTASVVCLLNNFYPREAKVQWKVDNALQSGNSQESVTEQDSKDSTYSLSSTLTLSKADYEKHKVYACEVTHQGLSSPVTKSFNRGEC	h	3.83

Cited source: patent US20080226630A1
